Target of assay: TLR8 (Homo sapiens, UniProt Q9NR97)
Sequence (Q9NR97 27-1041): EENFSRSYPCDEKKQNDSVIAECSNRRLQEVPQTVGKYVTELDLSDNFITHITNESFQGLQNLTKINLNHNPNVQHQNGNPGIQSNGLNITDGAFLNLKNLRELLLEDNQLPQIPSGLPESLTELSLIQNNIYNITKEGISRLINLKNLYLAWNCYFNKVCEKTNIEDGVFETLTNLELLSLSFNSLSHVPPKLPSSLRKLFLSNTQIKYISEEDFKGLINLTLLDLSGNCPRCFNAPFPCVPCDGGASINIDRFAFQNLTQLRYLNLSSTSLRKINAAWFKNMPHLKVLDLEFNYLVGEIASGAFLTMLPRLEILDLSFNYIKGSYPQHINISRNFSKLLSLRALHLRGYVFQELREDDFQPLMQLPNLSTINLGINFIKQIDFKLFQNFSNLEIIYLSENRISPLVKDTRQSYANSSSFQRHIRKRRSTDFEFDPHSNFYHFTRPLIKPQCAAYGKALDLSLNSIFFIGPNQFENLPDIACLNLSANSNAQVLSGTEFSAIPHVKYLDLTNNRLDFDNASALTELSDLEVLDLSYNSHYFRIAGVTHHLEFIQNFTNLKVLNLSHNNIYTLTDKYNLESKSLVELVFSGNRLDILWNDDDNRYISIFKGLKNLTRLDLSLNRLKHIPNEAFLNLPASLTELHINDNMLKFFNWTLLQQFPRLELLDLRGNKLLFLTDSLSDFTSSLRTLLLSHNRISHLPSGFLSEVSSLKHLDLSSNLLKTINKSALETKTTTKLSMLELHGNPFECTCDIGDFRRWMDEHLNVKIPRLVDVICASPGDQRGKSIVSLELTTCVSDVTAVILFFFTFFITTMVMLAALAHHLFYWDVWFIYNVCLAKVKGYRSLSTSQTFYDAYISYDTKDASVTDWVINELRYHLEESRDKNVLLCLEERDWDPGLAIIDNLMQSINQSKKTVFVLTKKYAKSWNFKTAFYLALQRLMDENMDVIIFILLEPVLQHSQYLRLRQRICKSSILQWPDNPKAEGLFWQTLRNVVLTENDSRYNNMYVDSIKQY
Method summary: Dose dependent TLR8-mediated NF-κB-luciferase response in HEK293 cells transfected with TLR8 (Example 5)
Assay type: cell-based
Parameters: expressed in transfected cells; host or cells: HEK293 (ATCC CRL-1573), pIRES vector, G-418 selected, co-transfected with NFkB-luc reporter
Run parameters: 30 μM
Could you please report measured Fold increase over vehicle for the items listed next?
Report the value in fold with no unit label.

For `CCOCc1nc2c(N)nc3cc(-c4ccccc4)ccc3c2n1CC1CCNCC1` the molecule record lists Fold increase over vehicle as 9.5

Summary for this molecule, `CCOCc1nc2c(N)nc3cc(-c4cccc(C(=O)N5CCCC5)c4)ccc3c2n1CC(C)(C)O` : Fold increase over vehicle is 7.8

For reference, reported Fold increase over vehicle for `CCOCc1nc2c(N)nc3cc(-c4cccnc4)ccc3c2n1CC(C)(C)O` stands at 22.4

// sample `CCOCc1nc2c(N)nc3cc(-c4cncc(CO)c4)ccc3c2n1CC(C)(C)O` , its Fold increase over vehicle was 9.3

For `CCc1nc2c(N)nc3cc(-c4ccncc4)ccc3c2n1CC(C)(C)O` the molecule record lists Fold increase over vehicle as 9.8

* * *

Target of assay: UniProt Q9NR97
Method summary: Dose dependent TLR8-mediated NF-κB-luciferase response in HEK293 cells transfected with TLR8 (Example 5)
Type: cell-based
Parameters: expressed in transfected cells; host or cells: HEK293 (ATCC CRL-1573), pIRES vector, G-418 selected, co-transfected with NFkB-luc reporter
Run parameters: 0.3 μM
Hi there, I'd appreciate the recorded Fold increase over vehicle for every entry that follows.
Write down the numeric answer in fold and omit the unit.

# molecule `CCOCc1nc2c(N)nc3cc(-c4ccccc4)ccc3c2n1CC1CCNCC1` ; its Fold increase over vehicle = 0.6

`CCCCc1nc2c(N)nc3ccccc3c2n1CCCS(C)(=O)=O` has a reported Fold increase over vehicle of 0.9

Data point: `CCCCc1nc2c(N)nc3ccccc3c2n1CC(C)(C)CNC(=O)N1CCOCC1` ; Fold increase over vehicle = 1.1

// field: Fold increase over vehicle; key: `COCCc1nc2c(N)nc3cc(-c4cncc(CO)c4)ccc3c2n1CC(C)(C)O` ; value = 1.4

The molecule `CCOCc1nc2c(N)nc3ccccc3c2n1CC(C)(C)NC(=O)NC1CCCC1` showed Fold increase over vehicle equal to 0.9

// Fold increase over vehicle value for `CCOCc1nc2c(N)nc3cc(-c4cccc(C(=O)N5CCCC5)c4)ccc3c2n1CC(C)(C)O` : 0.8

// `COCCc1nc2c(N)nc3cc(-c4cccc(NS(C)(=O)=O)c4)ccc3c2n1CC(C)(C)O` : Fold increase over vehicle value = 2.1

Entry `CCOCC(=O)NC(C)(C)Cn1c(COCC)nc2c(N)nc3ccccc3c21` ; Fold increase over vehicle = 2.3

Data point: `CCOCc1nc2c(N)nc3cc(-c4cncc(CO)c4)ccc3c2n1CC(C)(C)O` ; Fold increase over vehicle = 2.1
